GI50 tested on NCI-H460 lung: recorded values
reported.metric: GI50

>>> df
                                   compound  assayed_target  reported_metric       val
0  COC(=O)c1ccc(NC(N)=NCCC(C)(C)c2ccc(C(F)(F)F)cc2)nc1   NCI-H460 lung             GI50   2.06 µM
1    O=c1[nH]c2ccccc2cc1-c1nnc(Cc2ccccc2)o1   NCI-H460 lung             GI50   6.63 µM
2  OCC1OC(OC2(CO)OC(CO)C(O)C2O)C(O)C(O)C1O (stereo not drawn)   NCI-H460 lung             GI50  > 100 µM
3         OCc1ccc(-c2ccc(-c3ccc(CO)o3)o2)o1   NCI-H460 lung             GI50  > 100 µM
4  CCOC(=O)[C@@H](C)C[C@H](Cc1ccccc1)NC(=O)c1csc([C@@H](C[C@H](C(C)C)N(C)C(=O)CNC(=O)[C@H]2CCCCN2C)OC(C)=O)n1   NCI-H460 lung             GI50  0.612 µM
5  Nc1nc(Cl)c2ncn(Cc3ccc(C45CC6CC(CC(C6)C4)C5)c(OCc4cc(F)c(F)cc4F)c3)c2n1   NCI-H460 lung             GI50   2.39 µM
6  C/C(=C/CCC(C)[C@@H]1CC[C@]2(C)C3=C(CC[C@@]12C)[C@@]1(C)CCC(=O)C(C)(C)[C@@H]1CC3)C(=O)O (stereo partly drawn)   NCI-H460 lung             GI50   1.28 µM
7  O=C(CCCCN1CCN(CCCCC(=O)Nc2ccccc2C#C/C=C\C#Cc2ccccc2C(F)(F)F)CC1)Nc1ccccc1C#C/C=C\C#Cc1ccccc1C(F)(F)F   NCI-H460 lung             GI50   11.2 µM

----------
# Tested on: A498 renal
# protocol.summary: NCI tumour cell line growth inhibition, 48 h
Short version: TGI at least 30 µM is criterion met, less is criterion not met.

>>> df
                                    compound           category
 0                         Cc1nc2ccncc2[nH]1      criterion met
 1  CC(C)c1ccc(Cc2ccc(C(C)C)c(NC(=O)C(=O)Cc3cnc4ccccc4n3)c2C(C)C)c(C(C)C)c1NC(=O)C(=O)Cc1cnc2ccccc2n1      criterion met
 2  O=C(Nc1ccc(-n2cc(-c3ccncc3)c(-c3ccc(Cl)c(O)c3)n2)cc1)c1cc(C(F)(F)F)cc(C(F)(F)F)c1      criterion met
 3  CS(=O)(=O)OCCN1CCN(C(=O)c2ccc(Cl)c3c(Nc4ccc(S(=O)(=O)N=C(N)N)cc4)c4ccccc4nc23)CC1      criterion met
 4    O=c1c2ccc(Cl)cc2oc2c(CSc3ccccc3)cccc12      criterion met
 5  COC(=O)Nc1cc(OCCCOC(C)=O)c2[nH]c(C(=O)OC)cc2c1C[C@H](O)CO      criterion met
 6  O=C1C=CC2(O)OCC3C=C4O[C@@H]5OC6(CCCCC6)O[C@@H]5C4[C@@H]2[C@@H]13 (stereo partly drawn)      criterion met
 7  N#Cc1cc(F)cc(Oc2ccc(S(=O)(=O)C(F)F)c3c2CC(F)(F)[C@H]3O)c1      criterion met
 8  CCOC(=O)[C@@H](C)C[C@H](Cc1ccccc1)NC(=O)c1csc([C@@H](C[C@H](C(C)C)N(C)C(=O)CNC(=O)[C@H]2CCCCN2C)OC(C)=O)n1  criterion not met
 9  O=C1C2C(C(=O)N1Cc1ccccc1)N(Cc1ccccc1)C(=O)N2Cc1ccccc1 (stereo not drawn)      criterion met
10  O=c1c2ccccc2nc(-c2cccc(Cl)c2)n1NC1OC(CO)C(O)C(O)C1O (stereo not drawn)      criterion met
11               NC(=O)CSc1nc2ccccc2c(=O)n1N      criterion met
12           O=[N+]([O-])/C=C/c1ccc2ccccc2c1  criterion not met
13  O=C(/C=C/c1ccccc1)c1cc(CN2CCOCC2)c(O)c(CN2CCOCC2)c1  criterion not met
14  COc1cc2c(cc1O)C(Cc1ccc(OCc3ccccc3)c(OCc3ccccc3)c1)N(C(=O)NCCc1ccccc1)CC2 (stereo not drawn)      criterion met
15  CCN1C(=O)N(CC)C2C1NC(=S)N2/N=C/C=C/c1ccccc1 (stereo not drawn)  criterion not met
16  CCOC(=O)c1cc(C(=O)c2ccc(OC)c(OC)c2)n2c1ccc1ccc3cccnc3c12      criterion met
17    O=c1[nH]c2ccccc2cc1-c1nnc(Cc2ccccc2)o1  criterion not met
18  CC(C)CNP(=O)(NCC(C)C)Oc1ccc(CC(NC(=O)OCc2ccccc2)C(=O)OCc2ccccc2)cc1 (stereo not drawn)      criterion met
19  CCCCCCCCCCCCCCCC(=O)OCC1OC(n2cc(F)c(=O)[nH]c2=O)C(NC(=O)OCc2ccccc2)C(O)C1O (stereo not drawn)      criterion met
20  O=C(Nc1ccccc1C(=O)NC(=O)c1ccccc1NC(=O)c1ccccc1)c1ccccc1      criterion met
21  O=[N+]([O-])/C=C/c1cc(Cl)c(/C=C/[N+](=O)[O-])cc1Cl  criterion not met
22  NC(=O)c1nc(-c2c(F)cccc2Cl)oc1Nc1ccc(C(=O)N2CCOCC2)cc1  criterion not met
23  COC(=O)[C@]12CC[C@@H](C)[C@H](C)[C@@H]1C1=CC[C@@H]3[C@@]4(C)C(C=O)=C[C@@](C)(COS(C)(=O)=O)C4=CC[C@@]3(C)[C@]1(C)CC2  criterion not met
24  CN(Cc1cnc2nc(N)nc(N)c2n1)c1ccc(C(=O)NC(CCC(=O)O)C(=O)O)c2ccccc12 (stereo not drawn)      criterion met
25     Cc1ccc(S(=O)(=O)Nc2ccccc2C(C)(C)C)cc1      criterion met
26  [O-][n+]1c2cccc(O)c2[n+]([O-])c2cccc(O)c21      criterion met
27              C/C(=N\NC(=S)N1CCC1)c1ccccn1  criterion not met
28  CCc1c(OC(C)=O)c2c(NC3OC(COC(C)=O)C(OC(C)=O)C(OC(C)=O)C3OC(C)=O)nc(SC)nc2oc1=O (stereo not drawn)      criterion met
29   CC(C)(C)C(=O)c1c(O)c2ccccc2c2ccccc2c1=O      criterion met
30  COc1cccc(-c2cc(=O)c3cc(N4CCN(C)CC4)ccc3[nH]2)c1  criterion not met
31         OCc1ccc(-c2ccc(-c3ccc(CO)o3)o2)o1  criterion not met
32   C/C(=N\NC(=S)NC(C)(C)C)c1nc2ncccc2[nH]1      criterion met
33  O=C1Nc2ccc(-c3cccnc3)cc2/C1=C/c1cc(Br)c(O)c(Br)c1  criterion not met
34  O=c1c2[nH]cnc2n(-c2ccccc2)c(=S)n1-c1ccccc1      criterion met
35  CC(C)OC(=O)C(NC(=O)C(CC(=O)OCc1ccccc1)NC(=O)OCc1ccccc1)NC(=O)C1C(C)(C)CCC1(C)C (stereo not drawn)  criterion not met
36  CCCCCCCCCCCCCCCCNc1nc(=O)n(C2OC(C)C(O)C2O)cc1F (stereo not drawn)      criterion met

----------
# Tested on: NCI-H23 lung
# protocol.summary: NCI tumour cell line growth inhibition, 48 h
Listed compounds paired with reported TGI
reported.metric: TGI

In [3]: df
Out[3]:
                                    compound        val
 0   CC(C)(C)C(=O)c1c(O)c2ccccc2c2ccccc2c1=O   > 100 µM
 1  COC(=O)c1ccc(NC(N)=NCCC(C)(C)c2ccc(C(F)(F)F)cc2)nc1    11.5 µM
 2  O=C(N/N=C/c1ccccc1)c1c(F)c(F)c(F)c(F)c1F   > 100 µM
 3                     CN1CCCc2nc3ccccc3n2C1   > 100 µM
 4  C/C(=C/CCC(C)[C@@H]1CC[C@]2(C)C3=C(CC[C@@]12C)[C@@]1(C)CCC(=O)C(C)(C)[C@@H]1CC3)C(=O)O (stereo not given in full)    2.37 µM
 5   COC(=O)C1CCC(C)CC1=O (stereo not given)   > 100 µM
 6        CN(C)c1cccc2c(S(=O)(=O)NCCN)cccc12   > 100 µM
 7      O=c1[nH]ncc2[nH]c3c(c12)CCc1ccccc1-3   > 100 µM
 8   C/C(=N\NC(=S)NC(C)(C)C)c1nc2ncccc2[nH]1   > 100 µM
 9  O=C(Nc1nc(=S)[nH][nH]1)C(=O)C(c1cnc2ccc([N+](=O)[O-])cc2n1)[N+](=O)[O-] (stereo not given)   > 100 µM
10          CCOC(=O)N1CCNCCN(C(=O)OCC)CCNCC1   > 100 µM
11  CCc1ccc(Oc2c(-c3ccc(OCc4ccc(Cl)cc4)cc3O)nn(C)c2C(F)(F)F)cc1    1.74 µM
12  O=C(/C=C/c1ccccc1)c1cc(CN2CCOCC2)c(O)c(CN2CCOCC2)c1      60 µM
13  O=C1/C(=C\c2cccc(Oc3ccccc3)c2)SC(c2ccccc2)N1c1cc(Cl)ccc1Cl (stereo not given)   > 100 µM
14  CC(=O)Nc1cccc(C#Cc2cncnc2Nc2ccc(OCc3cccc(F)c3)c(Cl)c2)c1    > 25 µM
15  C[C@]12CCc3nc(Nc4ccc(O)cc4)sc3C1=CC[C@@H]1[C@@H]2CC[C@]2(C)/C(=N/NC(N)=S)CC[C@@H]12    4.36 µM
16      O=C(O)[C@H]1NC[C@H]2C(Br)=NO[C@@H]12   > 100 µM
17  CCNC(=S)N/N=C(/C)c1cccc(/C(C)=N\NC(=S)NCC)n1    73.7 µM
18                Cc1nc2sccn2c1C(=O)NNC(N)=S   > 100 µM
19  C=CCOC(C)(C)C1=CCC(C)CC1 (stereo not given)   > 100 µM
20  Cc1ccc(S(=O)(=O)OCCN(CCOS(=O)(=O)c2ccc(C)cc2)c2ccc(C=O)cc2)cc1   > 100 µM
21  CC(C)CNP(=O)(NCC(C)C)Oc1ccc(CC(NC(=O)OCc2ccccc2)C(=O)OCc2ccccc2)cc1 (stereo not given)    32.3 µM
22       Cc1nc(C(=Nc2ccc(Br)cc2)Nn2cnnc2)no1   > 100 µM
23  CN(C)CCNC(=O)Nc1ccc(N(C)c2ccnc(Nc3ccc(CS(C)(=O)=O)cc3)n2)cc1    > 25 µM
24                O=C(O)c1ccccc1C(=O)c1ccco1   > 100 µM
25  CC(=O)c1c(-c2ccc(Cl)cc2)c(C#N)c(=S)n(C2OC(CO)C(O)C(O)C2O)c1C (stereo not given)   > 100 µM
26  O=[N+]([O-])/C=C/c1cc(Cl)c(/C=C/[N+](=O)[O-])cc1Cl    22.5 µM
27          OCCNc1nc2ccccc2c2[nH]c3ccccc3c12    1.88 µM
28  Cc1cccc(C)c1NC(=O)CCCC(=O)C(C#N)c1ccccc1 (stereo not given)   > 100 µM
29  Oc1cn(-c2ccc(Cl)cc2)nc1-c1n[nH]c(=S)n1-c1ccc(F)cc1      33 µM
30  O=C(Nc1nc2ccc(S(=O)(=O)Nc3ccc(C4(C(F)(F)F)CC4)cc3)cc2[nH]1)c1cnccn1    15.8 µM
31             O=C(CI)NC(=O)NC(=O)NCc1ccccc1    19.5 µM
32      O=C(Nc1cccc2ccccc12)c1cc2ccccc2oc1=O   > 100 µM
33  CC(C)(C)O/N=C/c1cc(NC(=S)c2ccccc2)ccc1Cl    34.1 µM
34  CCOC(=O)C1C(c2ccc(Br)cc2)N(Cc2ccccc2)C(c2ccc(Br)cc2)C(C(=O)OC)S1(=O)=O (stereo not given)   > 100 µM
35  CCOC(=O)c1cc(C(=O)c2ccc(OC)c(OC)c2)n2c1ccc1ccc3cccnc3c12   > 100 µM
36                         Cc1nc2ccncc2[nH]1   > 100 µM
37  O=C1c2ccccc2-c2c1c1ccccc1c(=O)n2CCCNCCNCCCn1c2c(c3ccccc3c1=O)C(=O)c1ccccc1-2    2.57 µM
38  Nc1c(C(=O)Nc2ccccc2)sc2nc3c(cc12)C(=O)CCC3   > 100 µM
39  CN(Cc1cnc2nc(N)nc(N)c2n1)c1ccc(C(=O)NC(CCC(=O)O)C(=O)O)c2ccccc12 (stereo not given)  > 1000 µM

Just for reference, PubChem BioAssay (NCI) is where these values come from.
